Origin of the recorded values: the supplement of paper PMC5998384

Tested on: HeLa Kyoto
Experiment: melting temperature (median over replicates), in situ; higher = more thermally stable
Conditions: cell cycle stage: G1/S

| substance | target or system | value units | melting temperature |
| --- | --- | --- | --- |
| CASKIN2 | HeLa Kyoto | °C | 49.4 |
| MAPLRFSANLSWLFPELSGLPARVRAAGSSGFEAVEVAWPYAETPEALARAAREAGLRLVLINTPPGDQEKGEMGLGAVPGRQAAFREGLEQAVRYAKALGCPRIHLMAGRVPQGADRIAVKAEMEAVFLENLRHAAGVLAQEDLVGLLEPINTRITDPQYFLDTPQQAAAILQKVGRPNLQLQMDIFHWQIMDGNLTGNIREFLPIVGHVQVAQVPGRGEPSSPGELNFPYLFQLLEDEGYKGFVGCEYQPRGDTVEGLSWLRSYWDRRGHPEAGQ [HYI] | HeLa Kyoto | °C | 55.2 |
| MAQTPAFDKPKVELHVHLDGSIKPETILYYGRRRGIALPANTAEGLLNVIGMDKPLTLPDFLAKFDYYMPAIAGCREAIKRIAYEFVEMKAKEGVVYVEVRYSPHLLANSKVEPIPWNQAEGDLTPDEVVALVGQGLQEGERDFGVKARSILCCMRHQPNWSPKVVELCKKYQQQTVVAIDLAGDETIPGSSLLPGHVQAYQEAVKSGIHRTVHAGEVGSAEVVKEAVDILKTERLGHGYHTLEDQALYNRLRQENMHFEICPWSSYLTGAWKPDTEHAVIRLKNDQANYSLNTDDPLIFKSTLDTDYQMTKRDMGFTEEEFKRLNINAAKSSFLPEDEKRELLDLLYKAYGMPPSASAGQNL [ADA] | HeLa Kyoto | °C | 57.9 |

----------
Test system: HeLa Kyoto
Experiment: solubility change mitosis vs G1/S (difference of NP-40 vs SDS log2 ratios) (log2 ratio difference); higher = more soluble in mitosis
// bucketize solubility change mitosis (log2): bin 1: < -0.05; bin 2: ≥ -0.05 and < 0.2; bin 3: ≥ 0.2

| sequence code | target or system | assigned category |
| --- | --- | --- |
| MWGFRLLRSPPLLLLLPQLGIGNASSCSQARTMNPGGSGGARCSLSAEVRRRQCLQLSTVPGADPQRSNELLLLAAAGEGLERQDLPGDPAKEEPQPPPQHHVLYFPGDVQNYHEIMTRHPENYQWENWSLENVATILAHRFPNSYIWVIKCSRMHLHKFSCYDNFVKSNMFGAPEHNTDFGAFKHLYMLLVNAFNLSQNSLSKKSLNVWNKDSIASNCRSSPSHTTNGCQGEKVRTCEKSDESAMSFYPPSLNDASFTLIGFSKGCVVLNQLLFELKEAKKDKNIDAFIKSIRTMYWLDGGHSGGSNTWVTYPEVLKEFAQTGIIVHTHVTPYQVRDPMRSWIGKEHKKFVQILGDLGMQVTSQIHFTKEAPSIENHFRVHEVF [C2ORF69] | HeLa Kyoto | bin 2 |
| MAPRGRKRKAEAAVVAVAEKREKLANGGEGMEEATVVIEHCTSURVYGRNAAALSQALRLEAPELPVKVNPTKPRRGSFEVTLLRPDGSSAELWTGIKKGPPRKLKFPEPQEVVEELKKYLS [SELH] | HeLa Kyoto | bin 2 |
| MASNFKKANMASSSQRKRMSPKPELTEEQKQEIREAFDLFDADGTGTIDVKELKVAMRALGFEPKKEEIKKMISEIDKEGTGKMNFGDFLTVMTQKMSEKDTKEEILKAFKLFDDDETGKISFKNLKRVAKELGENLTDEELQEMIDEADRDGDGEVSEQEFLRIMKKTSLY [CETN2] | HeLa Kyoto | bin 3 |
| MAGTALKRLMAEYKQLTLNPPEGIVAGPMNEENFFEWEALIMGPEDTCFEFGVFPAILSFPLDYPLSPPKMRFTCEMFHPNIYPDGRVCISILHAPGDDPMGYESSAERWSPVQSVEKILLSVVSMLAEPNDESGANVDASKMWRDDREQFYKIAKQIVQKSLGL [UBE2G2] | HeLa Kyoto | bin 2 |
| MEKRLQEAQLYKEEGNQRYREGKYRDAVSRYHRALLQLRGLDPSLPSPLPNLGPQGPALTPEQENILHTTQTDCYNNLAACLLQMEPVNYERVREYSQKVLERQPDNAKALYRAGVAFFHLQDYDQARHYLLAAVNRQPKDANVRRYLQLTQSELSSYHRKEKQLYLGMFG [TTC9C] | HeLa Kyoto | bin 3 |
| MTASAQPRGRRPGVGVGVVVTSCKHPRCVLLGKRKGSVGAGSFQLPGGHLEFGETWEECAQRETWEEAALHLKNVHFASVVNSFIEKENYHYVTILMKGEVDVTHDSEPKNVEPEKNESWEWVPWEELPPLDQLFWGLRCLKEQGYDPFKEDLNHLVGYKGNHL [NUDT15] | HeLa Kyoto | bin 1 |
| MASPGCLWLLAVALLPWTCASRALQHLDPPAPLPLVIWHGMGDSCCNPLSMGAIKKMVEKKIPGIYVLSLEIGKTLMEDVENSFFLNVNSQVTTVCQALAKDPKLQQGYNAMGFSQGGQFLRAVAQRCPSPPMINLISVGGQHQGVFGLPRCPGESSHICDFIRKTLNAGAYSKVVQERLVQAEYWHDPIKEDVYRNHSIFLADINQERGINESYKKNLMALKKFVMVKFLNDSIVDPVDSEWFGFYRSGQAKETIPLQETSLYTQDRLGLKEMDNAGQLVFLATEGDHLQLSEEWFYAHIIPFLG [PPT1] | HeLa Kyoto | bin 1 |
| MEQLSSANTRFALDLFLALSENNPAGNIFISPFSISSAMAMVFLGTRGNTAAQLSKTFHFNTVEEVHSRFQSLNADINKRGASYILKLANRLYGEKTYNFLPEFLVSTQKTYGADLASVDFQHASEDARKTINQWVKGQTEGKIPELLASGMVDNMTKLVLVNAIYFKGNWKDKFMKEATTNAPFRLNKKDRKTVKMMYQKKKFAYGYIEDLKCRVLELPYQGEELSMVILLPDDIEDESTGLKKIEEQLTLEKLHEWTKPENLDFIEVNVSLPRFKLEESYTLNSDLARLGVQDLFNSSKADLSGMSGARDIFISKIVHKSFVEVNEEGTEAAAATAGIATFCMLMPEENFTADHPFLFFIRHNSSGSILFLGRFSSP [SERPINB1] | HeLa Kyoto | bin 1 |
| MFLQYYLNEQGDRVYTLKKFDPMGQQTCSAHPARFSPDDKYSRHRITIKKRFKVLMTQQPRPVL [NOP10] | HeLa Kyoto | bin 3 |
| MKAVVQRVTRASVTVGGEQISAIGRGICVLLGISLEDTQKELEHMVRKILNLRVFEDESGKHWSKSVMDKQYEILCVSQFTLQCVLKGNKPDFHLAMPTEQAEGFYNSFLEQLRKTYRPELIKDGKFGAYMQVHIQNDGPVTIELESPAPGTATSDPKQLSKLEKQQQRKEKTRAKGPSESSKERNTPRKEDRSASSGAEGDVSSEREP [DTD1] | HeLa Kyoto | bin 2 |
| MLSRVVLSAAATAAPSLKNAAFLGPGVLQATRTFHTGQPHLVPVPPLPEYGGKVRYGLIPEEFFQFLYPKTGVTGPYVLGTGLILYALSKEIYVISAETFTALSVLGVMVYGIKKYGPFVADFADKLNEQKLAQLEEAKQASIQHIQNAIDTEKSQQALVQKRHYLFDVQRNNIAMALEVTYRERLYRVYKEVKNRLDYHISVQNMMRRKEQEHMINWVEKHVVQSISTQQEKETIAKCIADLKLLAKKAQAQPVM [ATP5F1] | HeLa Kyoto | bin 2 |

----------
Test system: HeLa Kyoto
Experiment: melting temperature (median over replicates), in situ; higher = more thermally stable
Conditions: cell cycle stage: G1/S
observation type: melting temperature (°C)

| substance | observed measurement |
| --- | --- |
| CAMSAP1 | 50.4 |
| MSVAGGEIRGDTGGEDTAAPGRFSFSPEPTLEDIRRLHAEFAAERDWEQFHQPRNLLLALVGEVGELAELFQWKTDGEPGPQGWSPRERAALQEELSDVLIYLVALAARCRVDLPLAVLSKMDINRRRYPAHLARSSSRKYTELPHGAISEDQAVGPADIPCDSTGQTST [DCTPP1] | 54.1 |
| MADSELQLVEQRIRSFPDFPTPGVVFRDISPVLKDPASFRAAIGLLARHLKATHGGRIDYIAGLDSRGFLFGPSLAQELGLGCVLIRKRGKLPGPTLWASYSLEYGKAELEIQKDALEPGQRVVVVDDLLATGGTMNAACELLGRLQAEVLECVSLVELTSLKGREKLAPVPFFSLLQYE [APRT] | 57.1 |
| MNAEPERKFGVVVVGVGRAGSVRMRDLRNPHPSSAFLNLIGFVSRRELGSIDGVQQISLEDALSSQEVEVAYICSESSSHEDYIRQFLNAGKHVLVEYPMTLSLAAAQELWELAEQKGKVLHEEHVELLMEEFAFLKKEVVGKDLLKGSLLFTAGPLEEERFGFPAFSGISRLTWLVSLFGELSLVSATLEERKEDQYMKMTVCLETEKKSPLSWIEEKGPGLKRNRYLSFHFKSGSLENVPNVGVNKNIFLKDQNIFVQKLLGQFSEKELAAEKKRILHCLGLAEEIQKYCCSRK [BLVRA] | 54.9 |
| MASRGKTETSKLKQNLEEQLDRLMQQLQDLEECREELDTDEYEETKKETLEQLSEFNDSLKKIMSGNMTLVDELSGMQLAIQAAISQAFKTPEVIRLFAKKQPGQLRTRLAEMDRDLMVGKLERDLYTQQKVEILTALRKLGEKLTADDEAFLSANAGAILSQFEKVSTDLGSGDKILALASFEVEKTKK [LZIC] | 54.1 |
| MATRSPGVVISDDEPGYDLDLFCIPNHYAEDLERVFIPHGLIMDRTERLARDVMKEMGGHHIVALCVLKGGYKFFADLLDYIKALNRNSDRSIPMTVDFIRLKSYCNDQSTGDIKVIGGDDLSTLTGKNVLIVEDIIDTGKTMQTLLSLVRQYNPKMVKVASLLVKRTPRSVGYKPDFVGFEIPDKFVVGYALDYNEYFRDLNHVCVISETGKAKYKA [HPRT1] | 58.5 |
| MSTGGDFGNPLRKFKLVFLGEQSVGKTSLITRFMYDSFDNTYQATIGIDFLSKTMYLEDRTVRLQLWDTAGQERFRSLIPSYIRDSTVAVVVYDITNVNSFQQTTKWIDDVRTERGSDVIIMLVGNKTDLADKRQVSIEEGERKAKELNVMFIETSAKAGYNVKQLFRRVAAALPGMESTQDRSREDMIDIKLEKPQEQPVSEGGCSC [RAB6A] | 56.5 |
| MSLYPSLEDLKVDKVIQAQTAFSANPANPAILSEASAPIPHDGNLYPRLYPELSQYMGLSLNEEEIRANVAVVSGAPLQGQLVARPSSINYMVAPVTGNDVGIRRAEIKQGIREVILCKDQDGKIGLRLKSIDNGIFVQLVQANSPASLVGLRFGDQVLQINGENCAGWSSDKAHKVLKQAFGEKITMTIRDRPFERTITMHKDSTGHVGFIFKNGKITSIVKDSSAARNGLLTEHNICEINGQNVIGLKDSQIADILSTSGTVVTITIMPAFIFEHIIKRMAPSIMKSLMDHTIPEV [SDCBP] | 52.6 |
